Molecular target: T1, recombinant human KAAG1 (Kidney associated antigen 1) (human, UniProt Q9UBP8 1-84)
T1 construct: also called KAAG1 protein
T1 sequence: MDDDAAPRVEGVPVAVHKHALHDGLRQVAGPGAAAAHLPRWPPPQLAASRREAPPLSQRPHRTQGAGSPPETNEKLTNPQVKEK
Assay: SPR (BioRad ProteOn XPR36): antibody captured on an anti-human IgG Fc surface, KAAG1 injected as analyte, 1:1 Langmuir fit
Catalogue of binders with associated kon
Numeric only. Scale: M⁻¹ s⁻¹

Consider the following illustrative entries.
humanized 3A4 antibody Lh1Hh2 (antibody, human IgG1, kappa, V domains shown, Human IgG1/kappa) VH: QIQLVQSGAEVKKPGASVKVSCKASGYTFTDDYMSWVRQAPGQGLEWMGDINPYNGDTNYNQKFKGRVTITADKSTSTAYMELSSLRSEDTAVYYCARDPGAMDYWGQGTLVTVSS VL: DIVMTQTPLSLPVTPGEPASISCRSSQSLLHSNGNTYLEWYLQKPGQSPQLLIYTVSNRFSGVPDRFSGSGSGTDFTLKISRVEAEDVGVYYCFQGSHVPLTFGQGTKLEIKR ... 5.65e+06
chimeric 3A4 anti-KAAG1 antibody (mouse variable regions, human IgG1/kappa constant regions) (antibody, V domains shown, It is treated here as the same molecule; also called LcHc; murine 3A4 (LcHc)) VH: QIQLVQSGPEMVKPGASVKMSCKASGYTFTDDYMSWVKQSHGKSLEWIGDINPYNGDTNYNQKFKGKAILTVDKSSSTAYMQLNSLTSEDSAVYYCARDPGAMDYWGQGTSVTVSS VL: DVVMTQTPLSLAVSLGDQASISCRSSQSLLHSNGNTYLEWYLQKPGQSPKLLIHTVSNRFSGVPDRFSGSGSGTDFTLKISRVEAEDLGVYYCFQGSHVPLTFGAGTRLELKR ... 7.72e+06

Proceeding to the next binder to report its kon.
Task item: Requested field: kon. Item: humanized 3A4 antibody Lh2Hh2 (antibody, human IgG1, kappa, V domains shown, Human IgG1/kappa) VH: QIQLVQSGAEVKKPGASVKVSCKASGYTFTDDYMSWVRQAPGQGLEWMGDINPYNGDTNYNQKFKGRVTITADKSTSTAYMELSSLRSEDTAVYYCARDPGAMDYWGQGTLVTVSS VL: DVVMTQTPLSLPVTPGEPASISCRSSQSLLHSNGNTYLEWYLQKPGQSPKLLIYTVSNRFSGVPDRFSGSGSGTDFTLKISRVEAEDVGVYYCFQGSHVPLTFGQGTKLEIKR
Reply: 7.4e+06
